- Target or test system: Pdr3 (UniProt P33200)
- Sequence: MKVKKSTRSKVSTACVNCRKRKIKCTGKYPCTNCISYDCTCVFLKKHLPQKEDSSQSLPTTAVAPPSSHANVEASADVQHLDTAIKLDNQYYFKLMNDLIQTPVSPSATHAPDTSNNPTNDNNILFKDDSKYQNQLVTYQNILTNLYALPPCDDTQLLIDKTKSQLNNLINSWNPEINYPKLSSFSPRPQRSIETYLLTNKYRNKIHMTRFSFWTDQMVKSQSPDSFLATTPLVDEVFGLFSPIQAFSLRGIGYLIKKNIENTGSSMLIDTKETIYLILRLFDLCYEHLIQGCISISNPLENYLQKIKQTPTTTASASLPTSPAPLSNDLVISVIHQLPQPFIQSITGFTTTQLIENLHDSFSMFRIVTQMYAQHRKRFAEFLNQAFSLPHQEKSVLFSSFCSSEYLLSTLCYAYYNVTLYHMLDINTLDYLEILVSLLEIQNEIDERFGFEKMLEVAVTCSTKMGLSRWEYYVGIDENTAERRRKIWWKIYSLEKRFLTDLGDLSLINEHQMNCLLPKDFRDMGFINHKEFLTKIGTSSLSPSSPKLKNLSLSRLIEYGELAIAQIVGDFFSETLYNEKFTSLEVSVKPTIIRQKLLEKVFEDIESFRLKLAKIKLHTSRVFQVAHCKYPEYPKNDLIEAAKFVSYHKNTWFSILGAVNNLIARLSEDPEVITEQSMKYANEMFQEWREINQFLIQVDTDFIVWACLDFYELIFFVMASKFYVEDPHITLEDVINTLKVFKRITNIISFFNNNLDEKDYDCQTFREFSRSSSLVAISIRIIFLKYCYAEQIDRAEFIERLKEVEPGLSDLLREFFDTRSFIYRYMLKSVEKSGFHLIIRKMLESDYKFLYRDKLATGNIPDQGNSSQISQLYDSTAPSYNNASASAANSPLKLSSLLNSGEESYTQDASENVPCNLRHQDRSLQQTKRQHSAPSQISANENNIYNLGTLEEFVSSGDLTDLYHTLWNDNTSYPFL
- Measurement protocol: PBM E-score (8-mer binding enrichment) (E-score (-0.5 to 0.5)); higher = stronger / more preferred TF binding
- Protocol conditions: protein concentration: 200 nM; construct: GST-full length
The full ranking holds about 33,000 sequences; the median of “E-score (-0.5 to 0.5)” is about -0.035, and the highest 2% start at about 0.35. The full list was thinned out, with the highest values kept by preference.
Lab note: anything with PBM E-score at or over -0.04 counts as 1 (yes); the rest go in 0 (no).

{"columns": ["Item sequence", "Category label"],
 "data": [
  ["CTTTTAAA", "1 (yes)"],
  ["GCGCCGTA", "1 (yes)"],
  ["CCGCCGTC", "1 (yes)"],
  ["GGGACGAA", "1 (yes)"],
  ["CGGACGAA", "1 (yes)"],
  ["ACGCCGGA", "1 (yes)"],
  ["AAAGAGGA", "0 (no)"],
  ["CTAGGACA", "0 (no)"],
  ["AAAGTTGA", "0 (no)"],
  ["AAAAGAGT", "0 (no)"],
  ["AGCGAACG", "0 (no)"],
  ["GCGCCGAA", "1 (yes)"],
  ["AGATAGGC", "0 (no)"],
  ["CTCACCAA", "1 (yes)"],
  ["ATGCTCAC", "0 (no)"],
  ["ACGCCGGG", "1 (yes)"],
  ["CCGCCGCA", "1 (yes)"],
  ["CCGCCGGA", "1 (yes)"],
  ["CCCTAAGA", "0 (no)"],
  ["GAGGCGAA", "1 (yes)"],
  ["CCGCCGGC", "1 (yes)"]
]}

---

- Target or test system: Pdr3 (UniProt P33200)
- Sequence: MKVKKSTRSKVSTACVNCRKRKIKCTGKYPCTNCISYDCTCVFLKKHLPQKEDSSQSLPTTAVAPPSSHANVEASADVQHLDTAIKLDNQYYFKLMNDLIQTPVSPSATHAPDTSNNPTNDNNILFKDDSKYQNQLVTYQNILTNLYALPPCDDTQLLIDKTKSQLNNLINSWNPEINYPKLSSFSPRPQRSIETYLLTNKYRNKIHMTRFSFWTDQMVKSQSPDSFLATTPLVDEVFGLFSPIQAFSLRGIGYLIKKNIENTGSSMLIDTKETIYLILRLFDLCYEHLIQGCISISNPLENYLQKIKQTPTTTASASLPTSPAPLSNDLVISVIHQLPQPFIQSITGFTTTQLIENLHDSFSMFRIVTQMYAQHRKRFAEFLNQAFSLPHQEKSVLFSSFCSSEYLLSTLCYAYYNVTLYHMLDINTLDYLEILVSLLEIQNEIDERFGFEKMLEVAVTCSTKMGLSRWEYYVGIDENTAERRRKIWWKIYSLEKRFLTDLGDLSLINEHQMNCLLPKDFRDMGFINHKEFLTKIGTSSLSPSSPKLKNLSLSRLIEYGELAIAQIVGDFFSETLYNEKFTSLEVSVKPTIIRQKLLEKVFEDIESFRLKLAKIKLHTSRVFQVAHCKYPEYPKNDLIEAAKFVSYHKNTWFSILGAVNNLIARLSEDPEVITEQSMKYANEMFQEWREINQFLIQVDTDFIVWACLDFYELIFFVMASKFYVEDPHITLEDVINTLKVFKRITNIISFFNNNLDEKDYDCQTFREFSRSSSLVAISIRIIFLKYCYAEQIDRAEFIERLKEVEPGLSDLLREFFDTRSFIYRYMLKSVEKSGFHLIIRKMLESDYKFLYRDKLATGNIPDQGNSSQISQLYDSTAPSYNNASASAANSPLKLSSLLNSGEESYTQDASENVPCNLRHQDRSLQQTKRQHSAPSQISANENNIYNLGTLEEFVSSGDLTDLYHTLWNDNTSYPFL
- Measurement protocol: PBM E-score (8-mer binding enrichment) (E-score (-0.5 to 0.5)); higher = stronger / more preferred TF binding
- Protocol conditions: protein concentration: 200 nM; construct: GST-full length
The full ranking holds about 33,000 sequences; the median of “E-score (-0.5 to 0.5)” is about -0.035, and the highest 2% start at about 0.35. The sample as a whole holds a higher share of the highest values than the screen did.
Lab note: anything with PBM E-score at or over 0.1 counts as Criterion met; the rest go in Criterion not met.

{"columns": ["Item sequence", "Category label"],
 "data": [
  ["GTGCAGTA", "Criterion not met"],
  ["GGCGGAAA", "Criterion met"],
  ["ACGGAAGC", "Criterion met"],
  ["GTCAGATA", "Criterion not met"],
  ["CTTTCCGC", "Criterion met"],
  ["AATTTTAG", "Criterion not met"],
  ["AGCGGAAC", "Criterion met"],
  ["GAGGAAGA", "Criterion not met"],
  ["CCTTTTAG", "Criterion not met"],
  ["TGCGGGAA", "Criterion met"],
  ["CACGCGGC", "Criterion not met"],
  ["ACAGAAGT", "Criterion not met"],
  ["ACGAGATC", "Criterion not met"],
  ["CTCGCAAA", "Criterion not met"],
  ["CTTTCCCA", "Criterion not met"],
  ["ATCGGACC", "Criterion met"],
  ["CGTTAAGA", "Criterion not met"],
  ["ATCGGAGC", "Criterion met"],
  ["GGAGGAAA", "Criterion not met"],
  ["GTTTCCCA", "Criterion not met"],
  ["AGTACTGG", "Criterion not met"],
  ["GTCTTCAA", "Criterion not met"],
  ["AAAGTTAC", "Criterion not met"],
  ["ATGTCGTA", "Criterion not met"],
  ["ATTTCCTG", "Criterion not met"],
  ["GCTCGTAC", "Criterion not met"],
  ["TCGGAGAA", "Criterion met"],
  ["GGGGGAAA", "Criterion met"],
  ["CAGAACAA", "Criterion not met"],
  ["CCTCTAGC", "Criterion not met"],
  ["AAGGAAGA", "Criterion not met"],
  ["GGGGTCCA", "Criterion not met"],
  ["CTTTCCAA", "Criterion not met"],
  ["ACGGAGAA", "Criterion met"],
  ["ACGATCAG", "Criterion not met"],
  ["AACGCGGA", "Criterion met"],
  ["CCGGAGAA", "Criterion met"],
  ["AGCGGAAT", "Criterion met"],
  ["TGCGGAAA", "Criterion met"],
  ["AGAGGAAC", "Criterion not met"],
  ["GTCTCCAC", "Criterion not met"],
  ["ACGGAGAG", "Criterion met"],
  ["CAGGAGAG", "Criterion not met"],
  ["GGACAACC", "Criterion not met"],
  ["AGGGAAGC", "Criterion not met"],
  ["AGGCTTTC", "Criterion not met"]
]}

# credit: the supplement of paper PMC3334620
